Test system: Escherichia coli TOP10
method_summary: shrunken log2 fold change of peptide-encoding DNA abundance (4.5 h post-induction vs induction); higher = less antimicrobial activity (less host growth inhibition)
stated_conditions: time post-induction: 4.5 h; library: site-saturation at positions 5, 18, 19, 20
endpoint_label: shrunken log2 fold change
Give bare numbers.

sequence	shrunken log2 fold change
RRIRERPPRLPRPRPRPEPNPRP	0.366
RRIRFRPPRLPRPRPRPQEAPRP	0.201
RRIRNRPPRLPRPRPRPKITPRP	-0.367
RRIRKRPPRLPRPRPRPYSVPRP	-0.114
RRIRMRPPRLPRPRPRPFARPRP	0.412
RRIRDRPPRLPRPRPRPKKAPRP	0.0426
RRIRKRPPRLPRPRPRPPHYPRP	0.176
RRIRYRPPRLPRPRPRPSRVPRP	-0.115
RRIRDRPPRLPRPRPRPDSYPRP	-0.0336
RRIRPRPPRLPRPRPRPAMLPRP	0.233

Parameter requested: shrunken log2 fold change. Apply to each item below.
1. RRIRCRPPRLPRPRPRPFGRPRP
2. RRIRFRPPRLPRPRPRPNNEPRP
3. RRIRRRPPRLPRPRPRPKDEPRP
4. RRIRVRPPRLPRPRPRPAYPPRP
5. RRIRFRPPRLPRPRPRPVWGPRP
6. RRIRVRPPRLPRPRPRPDFKPRP
7. RRIRKRPPRLPRPRPRPMPLPRP

-0.207
-0.265
0.189
-0.179
0.311
0.0385
-0.00591

====

Test system: Escherichia coli TOP10
method_summary: shrunken log2 fold change of peptide-encoding DNA abundance (4.5 h post-induction vs induction); higher = less antimicrobial activity (less host growth inhibition)
stated_conditions: time post-induction: 4.5 h; library: site-saturation at positions 5, 18, 19, 20
Label Met when shrunken log2 fold change is at or above -0.07; anything below gets Not met.

sequence	assigned_class
RRIRKRPPRLPRPRPRPQTHPRP	Met
RRIRGRPPRLPRPRPRPAARPRP	Met
RRIRPRPPRLPRPRPRPIRSPRP	Met
RRIRVRPPRLPRPRPRPPKFPRP	Met
RRIRMRPPRLPRPRPRPWTNPRP	Met
RRIRKRPPRLPRPRPRPFYHPRP	Met

Does RRIRWRPPRLPRPRPRPPMIPRP have a reported shrunken log2 fold change of at least -0.07? Not met

Identify whether the reported shrunken log2 fold change of the following sequence is -0.07 or greater: RRIRERPPRLPRPRPRPMQFPRP Not met

Textbook exercise: given the entry RRIRFRPPRLPRPRPRPYNIPRP , state whether its shrunken log2 fold change is greater than or equal to -0.07. Not met

# bool: shrunken log2 fold change of RRIRVRPPRLPRPRPRPIFWPRP >= -0.07 Met

Kindly determine if shrunken log2 fold change recorded for RRIRFRPPRLPRPRPRPFYIPRP is above or exactly -0.07. Not met

====

Test system: Escherichia coli TOP10;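 further: peptides expressed intracellularly from a pBAD plasmid library in pooled LB shake-flask culture, induced with 0.3% L-arabinose, DNA abundance read by NGS, three biological replicates, DESeq2 with apeglm shrinkage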
method_summary: shrunken log2 fold change of peptide-encoding DNA abundance (4.5 h post-induction vs induction); higher = less antimicrobial activity (less host growth inhibition)
stated_conditions: time post-induction: 4.5 h; library: site-saturation at positions 5, 18, 19, 20
Provide the recorded shrunken log2 fold change for the entries that follow.
One number for each entry.

Check out these entries, answers already filled in.
sequence	endpoint_label	observed_value
RRIRIRPPRLPRPRPRPTADPRP	shrunken log2 fold change	-0.063
RRIRHRPPRLPRPRPRPSCRPRP	shrunken log2 fold change	-0.105
RRIRQRPPRLPRPRPRPQYSPRP	shrunken log2 fold change	0.124
RRIRIRPPRLPRPRPRPMWDPRP	shrunken log2 fold change	0.205
RRIRLRPPRLPRPRPRPWHTPRP	shrunken log2 fold change	-0.314

Provide reported shrunken log2 fold change for each item, in the same order as listed.
1. RRIRQRPPRLPRPRPRPNNHPRP
2. RRIRCRPPRLPRPRPRPVSLPRP
3. RRIRFRPPRLPRPRPRPHKPPRP
4. RRIRNRPPRLPRPRPRPISYPRP

1: -0.71; 2: -0.379; 3: 0.14; 4: -0.029

Hi there! I need shrunken log2 fold change for each item below, if you can.
1. RRIRRRPPRLPRPRPRPCQTPRP
2. RRIRNRPPRLPRPRPRPEFHPRP
3. RRIRLRPPRLPRPRPRPKYFPRP
4. RRIRDRPPRLPRPRPRPFTGPRP

1. -0.041
2. -0.0541
3. -0.269
4. -0.267

Go through the items and report each one's shrunken log2 fold change.
1. RRIRQRPPRLPRPRPRPMMQPRP
2. RRIRERPPRLPRPRPRPRACPRP

[-0.313, 0.177]
